Taken from patent US20240148821A1.

ASSAYED TARGET: protein-protein interaction between Kras and SOS1 (biotin-tagged human Kras loaded with GDP, His-tagged human SOS1) (Homo sapiens (Human), UniProt P01116, G12D)
TEST DESCRIPTION: Protein-protein interaction inhibition between Kras and SOS1 (KrasG12D-SOS PPI) using AlphaScreen;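 further: kras produced in E. coli, Ni-coupled donor beads and streptavidin acceptor beads, excitation 680 nm with emission detected at 520–620 nm via singlet oxygen transfer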
Assay type: biochemical
EXPERIMENTAL SETUP: AlphaScreen; biotin-tagged human Kras loaded with GDP, His-tagged human SOS1; read-out: KRAS G12D-SOS PPI IC50
Numbered stars: 1 amine (or outer) side, 2 acyl side, 3 side chain; on linkers, the order of the positions; unused ones are H or OH. Bridge positions count the residues as written; N and C are the ends. Square brackets hold non-standard residues; d marks the D form. Peptide text beside a SMILES is read from it. * marks the point of attachment. hPhe(3-Cl-4-CF3) = N[C@@H](CCc1ccc(C(F)(F)F)c(Cl)c1)C(=O)O; hPhe(3-F,4-CF3) = N[C@@H](CCc1ccc(C(F)(F)F)c(F)c1)C(=O)O; NEtPhe(4-CF3) = CCN[C@@H](Cc1ccc(C(F)(F)F)cc1)C(=O)O; hPhe(4-CF3) = N[C@@H](CCc1ccc(C(F)(F)F)cc1)C(=O)O; NMePhe(4-Cl) = CN[C@@H](Cc1ccc(Cl)cc1)C(=O)O; NMedβ3hAla = C[C@H](CC(=O)[*:2])N(C)[*:1]; Met(O2) = CS(=O)(=O)CC[C@H](N)C(=O)O; NMeCha = CN[C@@H](CC1CCCCC1)C(=O)O; Hyp = O=C(O)[C@@H]1C[C@@H](O)CN1; NMeF = CN[C@@H](Cc1ccccc1)C(=O)O; NMeI = CC[C@H](C)[C@H](NC)C(=O)O; NMeD = CN[C@@H](CC(=O)O)C(=O)O; NMeL = CN[C@@H](CC(C)C)C(=O)O; NMeV = CN[C@H](C(=O)O)C(C)C; d(β3hA) = C[C@@H](N)CC(=O)O; NMeAbu = CC[C@H](NC)C(=O)O; NMeA = CN[C@@H](C)C(=O)O; Piperidide = C1CCN(*)CC1; dNMeA = CN[C@H](C)C(=O)O; Ac5c = NC1(C(=O)O)CCCC1; Aze = O=C(O)[C@@H]1CCN1; Aib = CC(C)(N)C(=O)O; Sar = CNCC(=O)O
MEASURED PROPERTY: pIC50
A value of pIC50 is the negative decimal logarithm of a concentration given in moles per litre.

See these solved cases before continuing.
[[record]]
compound = "CC[C@H](C)[C@@H]1NC(=O)[C@H](C)N(C)C(=O)C[C@@H](C)NC(=O)[C@H](CC(C)C)N(C)C(=O)[C@H](Cc2ccccc2)N(C)C(=O)[C@@H]2C[C@@H](O)CN2C(=O)[C@H](CCc2ccc(C(F)(F)F)cc2)NC(=O)CN(C)C(=O)[C@H](Cc2ccc(Cl)cc2)N(C)C(=O)CN(C)C(=O)CN(C)C1=O [Compound 1375] (cyclo([Hyp][NMeF][NMeL][d(β3hA)][NMeA]I[Sar][Sar][NMePhe(4-Cl)][Sar][hPhe(4-CF3)]))"
recorded_number = 8.03

[[record]]
compound = "CC(C)C[C@H]1C(=O)N[C@@H](CCS(C)(=O)=O)C(=O)N(C)[C@@H](C)C(=O)N2CC[C@H]2C(=O)N(C)[C@@H](CC2CCCCC2)C(=O)N(C)CC(=O)N[C@@H](CCc2ccc(C(F)(F)F)c(Cl)c2)C(=O)N2CCC[C@H]2C(=O)NC2(CCCC2)C(=O)N(C)[C@@H](C(C)C)C(=O)N(C)[C@H](C(=O)N2CCCCC2)CC(=O)N1C [Compound 174] ([NMeL][Met(O2)][NMeA][Aze][NMeCha][Sar][hPhe(3-Cl-4-CF3)]P[Ac5c][NMeV][NMeD]-Piperidide; lactam N-11)"
recorded_number = 7.24

[[record]]
compound = "CC(C)C[C@H]1C(=O)N[C@@H](C(C)C)C(=O)N(C)CC(=O)N(C)CC(=O)N(C)[C@@H](CC2CCCCC2)C(=O)N(C)CC(=O)N[C@@H](CCc2ccc(C(F)(F)F)c(F)c2)C(=O)N(C)[C@@H](CC(C)C)C(=O)NC(C)(C)C(=O)N(C)[C@@H](CC(C)C)C(=O)N[C@H](C)CC(=O)N1C [Compound 1511] (cyclo([Aib][NMeL][d(β3hA)][NMeL]V[Sar][Sar][NMeCha][Sar][hPhe(3-F,4-CF3)][NMeL]))"
recorded_number = 6.72

[[record]]
compound = "CC[C@H](C)[C@@H]1NC(=O)[C@H](C)N(C)C(=O)C[C@@H](C)NC(=O)[C@H](C(C)C)N(C)C(=O)C2(CCCC2)NC(=O)[C@@H]2CCCN2C(=O)[C@H](CCc2ccc(C(F)(F)F)c(Cl)c2)NC(=O)[C@@H](C)N(C)C(=O)[C@H](CC2CCCCC2)N(C)C(=O)[C@@H]2CCN2C(=O)[C@H](CC)N(C)C1=O [Compound 2012] (cyclo([Ac5c][NMeV][d(β3hA)][NMeA]I[NMeAbu][Aze][NMeCha][dNMeA][hPhe(3-Cl-4-CF3)]P))"
recorded_number = 6.70


Shifting focus to the compound that follows.
Query string: What does the data say about its pIC50? Entry: CCO[C@@H]1C[C@H]2C(=O)NC3(CCCC3)C(=O)N(C)[C@@H]([C@@H](C)CC)C(=O)N(C)[C@H](C)CC(=O)N(C)[C@@H](CC(C)C)C(=O)N[C@@H]([C@@H](C)CC)C(=O)N[C@@H](C)C(=O)N3CC[C@H]3C(=O)N(CC)[C@@H](Cc3ccc(C(F)(F)F)cc3)C(=O)N(C)CC(=O)N[C@@H](CCc3ccc(C(F)(F)F)c(Cl)c3)C(=O)N2C1 [Compound 673] (cyclo(A[Aze][NEtPhe(4-CF3)][Sar][hPhe(3-Cl-4-CF3)][Hyp](Et)[Ac5c][NMeI][NMedβ3hAla][NMeL]I))
Result string: 7.96
